Experiment: Apparent passive permeability across apical to basolateral side in human Caco2 cells at 10 uM after 30 to 60 mins by LC/MS analysis
Assay type: ADME, cell-based
Settings: Caco-2
Parameter Papp A→B at 10 µM: see the listing below.

H-HSDAVFTDNYTRLRKQIAVKKYLNSILNGK-OH | < 0.1 ×10⁻⁶ cm/s

// next entry
Query: Given the substance `H-HSDAVFTDNYTRLRKQEAVKKYLNSILNGK-OH` , what is its reported Papp A→B at 10 µM?
Response: < 0.1 ×10⁻⁶ cm/s

---

Assay: Stability of the compound in phosphate buffer assessed as compound remaining at pH 7.4 after 15 mins by LC-MS-MS analysis in presence of trypsin
Type: ADME
Conditions: phosphate buffer with trypsin, read-out: Stability
value type: remaining at 0.25 h (%)
# unit: % | format: bare number

H-HSDAVFTDNYTRLRKQEAVKKYLNSILNGK-OH | 0.9

Moving on to the next substance.
Query: What remaining at 0.25 h value was documented for this substance, `H-HSDAVFTDNYTRLRKQIAVKKYLNSILNGK-OH` ?
Response: 0.3

---

Biological target: Vasoactive intestinal polypeptide receptor 2 (Homo sapiens, UniProt P41587)
Sequence (P41587 whole entry): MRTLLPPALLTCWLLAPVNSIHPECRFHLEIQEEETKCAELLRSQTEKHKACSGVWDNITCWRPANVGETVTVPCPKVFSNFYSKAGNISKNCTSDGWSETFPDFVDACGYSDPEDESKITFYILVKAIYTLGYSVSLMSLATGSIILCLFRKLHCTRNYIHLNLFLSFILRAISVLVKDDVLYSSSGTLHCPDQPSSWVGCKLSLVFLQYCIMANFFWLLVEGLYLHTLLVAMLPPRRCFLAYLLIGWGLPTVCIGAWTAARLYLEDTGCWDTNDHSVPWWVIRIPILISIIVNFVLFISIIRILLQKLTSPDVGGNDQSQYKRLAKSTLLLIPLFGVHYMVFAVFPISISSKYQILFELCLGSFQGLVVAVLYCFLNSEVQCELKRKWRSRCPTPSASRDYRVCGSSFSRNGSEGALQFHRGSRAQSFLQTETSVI
Assay: Agonist activity at human VPAC2 expressed in CHO Flp-in cells assessed as accumulation of cAMP after 30 mins by TR-FRET assay
Type: functional, cell-based
value type: EC50 (nM)
Write down the numeric answer in nM and omit the unit.

Reference set (3 entries):
H-HSDAVFTDNYTRLRKQIAVKKYLNSILNGK-OH | 0.14
H-HSDAVFTDNYTRLRKQEAVKKYLNSILNGK-OH | 0.38
H-HSDAVFTDNYTRLRKQIAVKEYLNKILNGK-OH | 0.21

Consider the record given below.
Query: Give Vasoactive intestinal polypeptide receptor 2 (Homo sapiens, UniProt P41587) EC50 for `H-HSDAVFTDNYTRERKQKAVKKYLNSILNGK-OH`
Response: 6.6
